From: patent US20240116985A1

Test: Solubility in PBS
Format: physicochemical
Details: Solubility (uM)
metric.name: Solubility (µM)
Write the answer as a number in µM, unit excluded.

molecule	metric.name	uom	recorded.number
CC(=O)N1CCC[C@]12CC=CCCCC1(CCCC=CCCCOC(=O)N3CC[C@@](C(=O)N[C@@H](Cc4ccccc4Cl)C(=O)N[C@@H](Cc4csc5ccccc45)C(=O)N[C@@H](CO)C(N)=O)(C3)NC(=O)[C@H]([C@@H](C)O)NC(=O)[C@H](Cc3ccccc3)NC(=O)[C@H](C)NC(=O)[C@H](C)NC(=O)[C@H](CC(=O)O)NC(=O)[C@H](CC(=O)O)NC1=O)NC(=O)[C@H](Cc1cccc3ccccc13)NC(=O)[C@H](CC(=O)O)NC2=O (some centres unmarked)	Solubility	µM	28

The record that follows has no Solubility shown yet.
Ask | Please report the measured Solubility for CC[C@H](C)[C@@H]1NC(=O)[C@H](CC(=O)O)NC(=O)[C@]2(CC=CCCCC3(CCCC=CCCCCCC[C@@](C)(C(=O)N[C@@H](Cc4ccccc4)C(=O)N[C@@H](Cc4csc5ccccc45)C(=O)N[C@@H](CCC(N)=O)C(N)=O)NC(=O)[C@H](CCC(N)=O)NC(=O)[C@H](CC(C)(C)C)NC(=O)[C@H](C)NC(=O)[C@H](C)NC(=O)[C@H](CCC(=O)O)NC(=O)[C@H](CC(=O)O)NC3=O)NC1=O)CCCN2C(C)=O (some centres unmarked)
Reply | 26

---

Test system: TCF/LEF luciferase Reporter in DLD1 cells
Assay: TCF reporter assay (DLD1 TCF/LEF luciferase reporter, Bright-Glo)
Type: cell-based
Conditions: read-out: DLD1 4% Abs IC50; DLD1 reporter, 4%, absolute IC50
metric.name: pIC50
As a rule, pIC50 stands for the negative log10 of the concentration, concentration in M.

Ask | Read the entry CC(=O)N1CCC[C@]12CC=CCCCC1(CCCC=CCCCOC(=O)N3CC[C@@](C(=O)N[C@@H](Cc4ccccc4C(F)(F)F)C(=O)N[C@@H](Cc4csc5ccccc45)C(=O)N[C@@H](CCC(N)=O)C(N)=O)(C3)NC(=O)[C@H](CC(C)C)NC(=O)[C@H](Cc3ccccc3)NC(=O)[C@H](C)NC(=O)[C@H](C)NC(=O)[C@H](Cc3cccc(C(=O)O)c3)NC(=O)[C@H](CC(=O)O)NC1=O)NC(=O)[C@H](CC(C)(C)C)NC(=O)[C@H](CC(=O)O)NC2=O (stereo partly shown) [I-1466] and write its reported pIC50.
Reply | 6.15

---

Collected IC50 values appear next to each entry.
Target: beta-catenin/TCF4 engagement (Homo sapiens)
Construct: expressed in transfected cells; host or cells: HEK293
Sequence (P35222 whole entry): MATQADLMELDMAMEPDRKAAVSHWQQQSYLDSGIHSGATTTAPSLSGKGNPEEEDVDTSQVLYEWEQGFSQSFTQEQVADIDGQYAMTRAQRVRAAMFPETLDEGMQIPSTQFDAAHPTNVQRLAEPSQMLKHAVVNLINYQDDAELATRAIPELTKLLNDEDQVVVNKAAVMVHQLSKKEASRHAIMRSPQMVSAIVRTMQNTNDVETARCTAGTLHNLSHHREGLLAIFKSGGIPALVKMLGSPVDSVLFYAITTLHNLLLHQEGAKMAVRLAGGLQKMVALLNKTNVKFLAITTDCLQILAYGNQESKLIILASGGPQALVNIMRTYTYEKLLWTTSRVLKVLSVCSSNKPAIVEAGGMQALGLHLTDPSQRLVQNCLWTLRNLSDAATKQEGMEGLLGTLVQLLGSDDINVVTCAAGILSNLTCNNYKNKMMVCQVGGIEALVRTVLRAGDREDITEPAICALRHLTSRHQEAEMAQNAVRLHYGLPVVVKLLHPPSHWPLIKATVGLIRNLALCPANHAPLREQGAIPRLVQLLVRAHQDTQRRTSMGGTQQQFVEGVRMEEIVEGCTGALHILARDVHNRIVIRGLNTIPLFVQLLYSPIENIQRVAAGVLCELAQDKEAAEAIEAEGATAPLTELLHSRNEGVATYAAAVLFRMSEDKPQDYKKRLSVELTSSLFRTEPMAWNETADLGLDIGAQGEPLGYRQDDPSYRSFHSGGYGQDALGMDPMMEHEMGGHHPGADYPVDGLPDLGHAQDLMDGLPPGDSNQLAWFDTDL
Experiment: Nano-BRET target engagement assay (B-cat-Halo & TCF4-Luc in HEK293 cells)
Type: cell-based
Settings: absolute IC50; read-out: NanoBRET Abs IC50
Output spec: scalar in µM, unitless text.

compound	test.target	IC50 (µM)
CC(=O)N1CCC[C@]12CC=CCCCC1(CCCC=CCCCOC(=O)N3CC[C@@](C(=O)N[C@@H](Cc4ccsc4)C(=O)N[C@@H](Cc4csc5ccccc45)C(=O)N[C@@H](CCC(N)=O)C(N)=O)(C3)NC(=O)[C@H](CC(C)C)NC(=O)[C@H](Cc3ccccc3)NC(=O)[C@H](C)NC(=O)[C@H](C)NC(=O)[C@H](CN(CC(=O)O)C(=O)c3ccccn3)NC(=O)[C@H](CC(=O)O)NC1=O)NC(=O)[C@H](CC(C)(C)C)NC(=O)[C@H](CC(=O)O)NC2=O (stereo partly drawn) [I-2237]	beta-catenin/TCF4 engagement (Homo sapiens)	24.3

Moving on to another compound below.
Ask | Tell me its IC50 given CC(=O)N1CCC[C@]12CC=CCCCC1(CCCC=CCCCCCC[C@@](C)(C(=O)N[C@@H](Cc3ccccc3Br)C(=O)N[C@@H](Cc3csc4ccccc34)C(=O)N[C@@H](CCC(N)=O)C(N)=O)NC(=O)[C@H](CC(N)=O)NC(=O)[C@H](Cc3ccccc3)NC(=O)[C@H](C)NC(=O)[C@H](C)NC(=O)[C@H](CN(CC(=O)O)CC(F)(F)F)NC(=O)[C@H](CC(=O)O)NC1=O)NC(=O)[C@H](CC(C)(C)C)NC(=O)[C@H](CC(=O)O)NC2=O (stereo partly drawn) [I-932] as the entry.
Reply | 11.4
